// data source = paper PMC8808179

Target: human interleukin (IL)-13 (Homo sapiens, UniProt P35225)
Sequence (P35225 25-146): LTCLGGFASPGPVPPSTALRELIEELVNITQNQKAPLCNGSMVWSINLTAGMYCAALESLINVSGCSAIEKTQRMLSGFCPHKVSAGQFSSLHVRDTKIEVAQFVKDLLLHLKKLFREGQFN
Assay: KinExA
property-label: Kd (pM)
Lab book: enter the figure in pM, no units written.

[[record]]
binder = "antibody 731 (antibody, V domains shown) VH: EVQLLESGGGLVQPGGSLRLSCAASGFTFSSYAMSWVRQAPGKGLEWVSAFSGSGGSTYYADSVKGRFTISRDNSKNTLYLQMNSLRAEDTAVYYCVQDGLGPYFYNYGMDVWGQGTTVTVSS VL: SYELTQPPSVSVSPGQTASITCSGDKLGDKYTCWFQQKPGQSPVLVIYHDSKRPSGIPERFSGSNSGDTATLTISGTQAMDEADYYCQAWDSSTYVFGTGTKVTVL"
assay_result = 1.9

[[record]]
binder = "MMAb1 (LC1/HC2) (antibody, V domains shown) VH: EVQLLESGGGLVQPGGSLRLSCAASGFTFSSYAGSWVRQAPGKGLEWVSAFSGSGGSTYYADSVKGRFTISRDNSKNTLYLQMNSLRAEDTAVYYCVQDGLGPYFYNYGMDVWGQGTTVTVSS VL: SYELTQPPSVSVSPGQTASITCSGDKLGDKYSFWFQQKPGQSPVLVIYHDSKRPSGIPERFSGSNSGDTATLTISGTQAMDEADYYCQAWDSSTYVFGTGTKVTVL"
assay_result = 0.295

[[record]]
binder = "MMAb2 (LC2/HC2) (antibody, V domains shown) VH: EVQLLESGGGLVQPGGSLRLSCAASGFTFSSYAGSWVRQAPGKGLEWVSAFSGSGGSTYYADSVKGRFTISRDNSKNTLYLQMNSLRAEDTAVYYCVQDGLGPYFYNYGMDVWGQGTTVTVSS VL: SYELTQPPSVSVSPGQTASITCSGDKLGDKYAFWFQQKPGQSPVLVIYHDSKRPSGIPERFSGSNSGDTATLTISGTQAMDEADYYCQAWDSSTYVFGTGTKVTVL"
assay_result = 0.142


Read the next record carefully.
Enquiry: State, in one line, measured Kd of MMAb3 (LC1/HC1) (antibody, V domains shown) VH: EVQLLESGGGLVQPGGSLRLSCAASGFTFSSYAMSWVRQAPGKGLEWVSAFSGWDVSTYYADSVKGRFTISRDNSKNTLYLQMNSLRAEDTAVYYCVQDGLGPYFYNYGMDVWGQGTTVTVSS VL: SYELTQPPSVSVSPGQTASITCSGDKLGDKYSFWFQQKPGQSPVLVIYHDSKRPSGIPERFSGSNSGDTATLTISGTQAMDEADYYCQAWDSSTYVFGTGTKVTVL
Return: 0.034
